What Percent Effect was measured for each of the following?
- measured_target: Aspartate--tRNA(Asp/Asn) ligase (Mycobacterium tuberculosis (strain ATCC 25618 / H37Rv)) (UniProt P9WFW3); also: in the data most compounds retested in dose-response had high values
- Sequence (P9WFW3 whole entry): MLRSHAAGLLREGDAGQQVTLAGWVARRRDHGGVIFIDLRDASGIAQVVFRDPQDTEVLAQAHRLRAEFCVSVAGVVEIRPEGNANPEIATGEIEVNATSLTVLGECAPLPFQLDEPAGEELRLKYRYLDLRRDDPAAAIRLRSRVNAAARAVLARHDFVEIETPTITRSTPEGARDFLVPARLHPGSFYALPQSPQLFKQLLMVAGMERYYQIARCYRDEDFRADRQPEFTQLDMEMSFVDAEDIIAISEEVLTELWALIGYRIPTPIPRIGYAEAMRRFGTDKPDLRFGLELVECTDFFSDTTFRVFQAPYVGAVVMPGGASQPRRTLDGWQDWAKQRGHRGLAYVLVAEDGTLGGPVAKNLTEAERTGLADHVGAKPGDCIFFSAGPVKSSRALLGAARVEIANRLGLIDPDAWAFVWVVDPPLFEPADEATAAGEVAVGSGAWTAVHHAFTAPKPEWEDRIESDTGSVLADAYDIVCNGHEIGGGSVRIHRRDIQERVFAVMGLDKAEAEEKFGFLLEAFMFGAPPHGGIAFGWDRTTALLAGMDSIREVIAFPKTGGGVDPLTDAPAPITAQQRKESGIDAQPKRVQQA
- test: Assay for Asp RNA synthetase-1 from Mycobacterium tuberculosis
- Format: functional
- Set-up: scale not given: direction of the effect not stated beside the values
- condition_label: 30 µM
One number for each entry, in %.

>  <compound>
CNC(=O)C1CCN(C(=O)CCn2cccn2)CC1

>  <Percent Effect / %>
6.32

$$$$
>  <compound>
O=C(CCC1CCCC1)NCCn1nc(C2CCNC2)c2cccnc21 (centres undefined)

>  <Percent Effect / %>
-0.368

$$$$
>  <compound>
COc1cc(C)nc(N2CCN(C(=O)CNC(C)(C)C)CC2)n1

>  <Percent Effect / %>
-2.1

$$$$

For each entry beneath this line, provide reported Percent Effect.
1. Cc1nc(C)n(CC2CCCN2Cc2nc(C3CC3)no2)n1 (centres undefined)
2. CNS(=O)(=O)Cc1ccc(CNc2cncc(-n3cccn3)n2)cc1

Resp:
1: 0.278; 2: -0.637

###

- measured_target: Shiga toxin 2 (Escherichia coli O157:H7) (UniProt P09385+P09386)
- test: E. coli 0.157:H7 Shiga Toxin SOP - stx2 screening assay
- Type: functional
- Parameters: scale not given: direction of the effect not stated beside the values
- condition_label: 30 µM
value_kind: Percent Effect (%)
Give bare numbers, in %.

Sample answers from the record:
>  <compound>
O=C(Cn1cnc(-c2ccccc2)cc1=O)Nc1ccncc1

>  <units_text>
%

>  <Percent Effect>
-36.3

$$$$
>  <compound>
Cn1cccc1CCC(=O)N1CCC2(CC1)c1ccccc1CC2O (centres undefined)

>  <units_text>
%

>  <Percent Effect>
-22.3

$$$$
>  <compound>
Cn1cc(CN2CCCC3(CCN(c4nncs4)C3)C2)cn1 (centres undefined)

>  <units_text>
%

>  <Percent Effect>
-11.3

$$$$
>  <compound>
COc1c(CNCc2ccc(C(=O)N(C)C)cc2)c(C)nn1C

>  <units_text>
%

>  <Percent Effect>
-13.9

$$$$

Please state Percent Effect for every compound in the list that follows.
1. COc1ccc(CN2CCn3cc(CN4CCCCC4)nc3C2)cc1
2. Cc1nc(C(C)C)sc1C(=O)NS(=O)(=O)c1ccc(C#N)cc1
3. CCCN1CCCn2nc(CNS(=O)(=O)c3cccc(C#N)c3)cc2C1
4. Cc1c[nH]nc1C1CCN(S(=O)(=O)N(C)C)CC1
5. CCN1CCN(Cc2coc(-c3cccc(F)c3)n2)CC1
6. CCc1nc(C)ncc1C(=O)N1CCCC(n2nc(C)nc2C)C1 (centres undefined)
7. CCN(Cc1ccc2c(c1)OCO2)Cc1nc(C)no1
8. O=C(NCCOc1ccc(F)c(F)c1)NCc1ccncc1

Resp:
[-5.01, 0.0303, 28.5, -2.83, -35.5, 0.321, 23.9, -4.38]

Working through the 2 compounds below one at a time, give Percent Effect for each.
1. O=c1[nH]c2c(c(=O)n1C1CCCCC1)CCC2Nc1ccccc1Cl (centres undefined)
2. CCn1cc(C(=O)N2CCCC(c3[nH]ncc3S(C)(=O)=O)C2)cn1 (centres undefined)

Resp:
[-5.14, -8.37]

###

Can you tell me Percent Effect for the items I'm about to list?
- measured_target: Aspartate--tRNA(Asp/Asn) ligase (Mycobacterium tuberculosis (strain ATCC 25618 / H37Rv)) (UniProt P9WFW3); also: in the data most compounds retested in dose-response had high values
- test: Assay for Asp RNA synthetase-1 from Mycobacterium tuberculosis
- Type: functional
- Parameters: scale not given: direction of the effect not stated beside the values
- condition_label: 30 µM
Answers are plain numbers, in %.

>  <compound>
CCn1cc(N2Cc3nc(N4CCN(C)CC4)ncc3C2=O)cn1

>  <value_kind>
Percent Effect

>  <quantitative_readout>
-1.54

$$$$
>  <compound>
COc1c(C)cnc(CN2CCCCC2Cn2nc(C)nc2C)c1C (stereo not drawn)

>  <value_kind>
Percent Effect

>  <quantitative_readout>
-2.54

$$$$
>  <compound>
O=C(CCCc1ncc(-c2ccccc2)o1)N1CCN(CCO)CC1

>  <value_kind>
Percent Effect

>  <quantitative_readout>
-1.6

$$$$
>  <compound>
CCCS(=O)(=O)NC(C)C(=O)NCc1ccc(N2CCCC2)nc1 (stereo not drawn)

>  <value_kind>
Percent Effect

>  <quantitative_readout>
2.42

$$$$
>  <compound>
c1ccc(-c2nc(CN3CCc4c(ncn4C4CC4)C3)cs2)cc1

>  <value_kind>
Percent Effect

>  <quantitative_readout>
4.49

$$$$

Look at each compound and report its Percent Effect.
1. CCN1CC2(CC1=O)CN(Cc1cnn(C)c1)CCN(C(=O)C(C)C)C2 (stereo not drawn)
2. O=C(c1cccs1)N1CCC(O)(CN2CCc3ccccc3C2)C1 (stereo not drawn)
3. N#Cc1ccc(CNC(=O)NC2CCN(CC(F)F)CC2)cc1
4. CCc1nnc(CN2CCCC(c3cc(C(F)(F)F)[nH]n3)C2)o1 (stereo not drawn)

Resp:
1: -1.53; 2: -5.2; 3: -4.22; 4: 1.01
